The reported measurements were obtained from PubChem BioAssay AID2060907.

Please provide measured viability, T/C for the entries that follow.
system: 388556-164-R-J1-PDC complex spheroid viability; assay: Anticancer human tumor 388556-164-R-J1-PDC patient-derived colon adenocarcinoma cell line growth inhibition [RAS]; details: second compound 0.0316 µM; first compound 3.16 µM; active compounds read low;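 note: spheroids exposed to compound for 7 days before readout; 100% = DMSO vehicle control luminescence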
Answers are plain numbers, in %.

Some compounds with known viability, T/C results, for comparison:
CC(=O)OC12COC1CC(O)C1(C)C(=O)C(O)C3=C(C)C(OC(=O)C(O)C(NC(=O)OC(C)(C)C)c4ccccc4)CC(O)(C(OC(=O)c4ccccc4)C21)C3(C)C (stereo not drawn) + C=CC(=O)N1CCN(c2nc(OCC3CCCN3C)nc3c(F)c(-c4nc(N)cc(C)c4C(F)(F)F)c(Cl)cc23)C(C)C1
76
CC(C)NCC(C(=O)N1CCN(c2ncnc3c2C(C)CC3O)CC1)c1ccc(Cl)cc1 (stereo not drawn) + C#Cc1c(F)ccc2cc(O)cc(-c3ncc4c(N5CC6CCC(C5)N6)nc(OCC56CCCN5CC(F)C6)nc4c3F)c12
99.2

### Prompt Write down viability, T/C measured for item CC(Nc1ccc2c(c1)OCCn1cc(N3C(=O)OCC3C(F)F)nc1-2)C(N)=O (stereo not drawn) + C=CC(=O)N1CCN(c2nc(OCC3CCCN3C)nc3c(F)c(-c4nc(N)cc(C)c4C(F)(F)F)c(Cl)cc23)C(C)C1
### Response 81.5
